# Measurement Target: human recombinant PTP1B (hGST-PTP1B) (Homo sapiens)
# Construct: made in house; host or cells: E. coli BL21
# Sequence (P18031 1-435): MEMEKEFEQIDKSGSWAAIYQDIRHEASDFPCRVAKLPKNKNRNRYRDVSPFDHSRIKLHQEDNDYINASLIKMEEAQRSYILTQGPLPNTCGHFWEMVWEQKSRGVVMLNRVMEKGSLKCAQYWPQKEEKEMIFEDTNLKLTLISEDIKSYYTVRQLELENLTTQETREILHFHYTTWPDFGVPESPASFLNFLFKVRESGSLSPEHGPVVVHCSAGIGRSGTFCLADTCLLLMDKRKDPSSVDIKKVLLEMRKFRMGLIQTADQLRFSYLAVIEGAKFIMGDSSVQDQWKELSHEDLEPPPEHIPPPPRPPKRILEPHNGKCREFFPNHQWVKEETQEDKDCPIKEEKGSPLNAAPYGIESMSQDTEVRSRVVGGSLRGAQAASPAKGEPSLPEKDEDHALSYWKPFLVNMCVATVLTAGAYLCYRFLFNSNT
# Test Details: PTP1B inhibitory assay (pNPP hydrolysis, absorbance at 405 nm)
# Format: biochemical
# Conditions: 2 mM pNPP, 30 nM hGST-PTP1B, pH 6.5, 30° C.; read-out: IC50 (converted)
Property Label: IC50 (nM)
Answers are plain numbers, in nM.

{"columns": ["Compound", "IC50 [nM]"],
 "data": [
  ["COc1cc(C(=O)c2c(C(Br)Br)cc(OC)c(OC)c2Br)c(Br)c(Br)c1OC", 1840],
  ["CCC(C)OCc1cc(O)c(O)c(Br)c1Cc1cc(O)c(O)c(Br)c1Br (stereo not shown)", 1820]
]}

Parameters: items (list). Returns: IC50 for each item.
1. CC(C)OCc1cc(O)c(O)c(Br)c1Cc1cc(O)c(O)c(Br)c1Br
2. CCCOCc1cc(O)c(O)c(Br)c1Cc1c(Br)c(O)c(O)c(Br)c1Br

Response given:
628
1630

These entries and their values trace back to patent US8816129B2.
